targetDesc: THRα (Homo sapiens)
Construct: GST
testProtocol: THRα binding assay (as the THRβ assay, THRβ replaced with THRα)
Format: biochemical
conditionParameters: THRα in place of THRβ
readoutName: EC50 (nM)
Numbers only, in nM.

Some compounds with recorded EC50:
>>> testvalue("Cc1ccc(-n2cc(Oc3c(Cl)cc(-n4nc(CF)c(=O)[nH]c4=O)cc3Cl)ccc2=O)cc1")
7630
>>> testvalue("N#Cc1nn(-c2cc(Cl)c(Oc3ccc(=O)n(-c4cccc(F)c4)c3)c(Cl)c2)c(=O)[nH]c1=O")
669
>>> testvalue("N#Cc1nn(-c2cc(Cl)c(Oc3ccc(=O)n(C4CCC4)c3)c(Cl)c2)c(=O)[nH]c1=O")
290

Answer for every listed entry: what is its EC50? The entries follow.
1. N#Cc1nn(-c2cc(Cl)c(Oc3ccc(=O)n(C4=CCCC4)c3)c(Cl)c2)c(=O)[nH]c1=O
2. N#Cc1nn(-c2cc(Cl)c(Oc3ccc(=O)n(-c4cccc(OC(F)(F)F)c4)c3)c(Cl)c2)c(=O)[nH]c1=O
3. N#Cc1nn(-c2cc(Cl)c(Oc3ccc(=O)n(-c4cccc(C(F)(F)F)c4)c3)c(Cl)c2)c(=O)[nH]c1=O
4. [2H]C1(n2cc(Oc3c(Cl)cc(-n4nc(C#N)c(=O)[nH]c4=O)cc3Cl)ccc2=O)CCCC1
5. Cc1cc(C)cc(-n2cc(Oc3c(Cl)cc(-n4nc(CF)c(=O)[nH]c4=O)cc3Cl)ccc2=O)c1

[reply]
1: 236; 2: 810; 3: 2690; 4: 600; 5: 696

###

targetDesc: THRα (Homo sapiens, UniProt P10827)
Construct: GST
Sequence (P10827 1-410 isoform P10827-2, other chains not shown): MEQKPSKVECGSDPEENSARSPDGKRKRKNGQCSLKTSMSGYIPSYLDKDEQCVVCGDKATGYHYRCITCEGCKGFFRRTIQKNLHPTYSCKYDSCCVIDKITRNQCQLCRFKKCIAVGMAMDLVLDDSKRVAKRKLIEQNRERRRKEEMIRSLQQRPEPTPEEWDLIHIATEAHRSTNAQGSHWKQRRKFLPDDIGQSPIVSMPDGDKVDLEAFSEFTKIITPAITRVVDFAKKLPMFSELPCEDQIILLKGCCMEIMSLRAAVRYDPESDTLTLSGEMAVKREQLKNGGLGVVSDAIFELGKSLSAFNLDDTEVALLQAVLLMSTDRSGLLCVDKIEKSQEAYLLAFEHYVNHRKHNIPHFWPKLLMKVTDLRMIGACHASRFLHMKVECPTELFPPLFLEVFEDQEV
Sequence (P19793 whole entry partner, other chains not shown): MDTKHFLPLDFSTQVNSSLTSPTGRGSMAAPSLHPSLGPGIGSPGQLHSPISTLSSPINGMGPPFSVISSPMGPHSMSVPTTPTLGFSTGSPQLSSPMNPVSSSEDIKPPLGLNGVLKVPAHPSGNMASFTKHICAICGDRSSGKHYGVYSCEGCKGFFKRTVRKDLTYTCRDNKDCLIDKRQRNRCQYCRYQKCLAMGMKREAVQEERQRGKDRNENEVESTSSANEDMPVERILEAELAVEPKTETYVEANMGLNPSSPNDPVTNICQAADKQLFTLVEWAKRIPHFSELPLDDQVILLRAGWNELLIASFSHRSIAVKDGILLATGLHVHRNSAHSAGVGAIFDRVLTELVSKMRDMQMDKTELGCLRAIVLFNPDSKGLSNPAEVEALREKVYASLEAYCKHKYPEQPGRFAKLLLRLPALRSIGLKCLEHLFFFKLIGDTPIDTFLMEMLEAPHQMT
testProtocol: THRα binding assay (as the THRβ assay, THRβ replaced with THRα)
Type: biochemical
conditionParameters: ratio of THRα EC50 to THRβ EC50
Grouping rule (THRα/β selectivity (fold)): LOW (below 10 fold), MID (10 fold to below 50 fold), HIGH (50 fold or more)

Solved cases below.
>>> class("N#Cc1nn(-c2cc(Cl)c(Oc3ccc(=O)n(-c4cccc(F)c4)c3)c(Cl)c2)c(=O)[nH]c1=O [Example 22]")
"MID"
>>> class("CC1CCc2c(Oc3c(Cl)cc(-n4nc(C#N)c(=O)[nH]c4=O)cc3Cl)ccc(=O)n21 (stereo not drawn) [Example 46]")
"LOW"
>>> class("N#Cc1nn(-c2cc(Cl)c(Oc3ccc(=O)n(-c4ccccc4)c3)c(Cl)c2)c(=O)[nH]c1=O [Example 20]")
"MID"
>>> class("CC(C)n1cc(Oc2c(Cl)cc(-n3nc(C#N)c(=O)[nH]c3=O)cc2Cl)ccc1=O [Example 1]")
"LOW"
>>> class("O=c1[nH]c(=O)n(-c2cc(Cl)c(Oc3ccc(=O)n(-c4ccc(F)cc4)c3)c(Cl)c2)nc1CF [Example 37]")
"HIGH"

[ask] Category lookup for the compound N#Cc1nn(-c2cc(Cl)c(Oc3ccc(=O)n(C4=CCCC4)c3)c(Cl)c2)c(=O)[nH]c1=O [Example 11]
[reply] MID

[ask] Category lookup for the compound Cc1cc(C)cc(-n2cc(Oc3c(Cl)cc(-n4nc(CF)c(=O)[nH]c4=O)cc3Cl)ccc2=O)c1 [Example 42]
[reply] HIGH

[ask] Category lookup for the compound N#Cc1nn(-c2cc(Cl)c(Oc3ccc(=O)n(C4CCC4)c3)c(Cl)c2)c(=O)[nH]c1=O [Example 3]
[reply] MID

[ask] Category lookup for the compound N#Cc1nn(-c2cc(Cl)c(Oc3ccc(=O)n(-c4cccc(OC(F)(F)F)c4)c3)c(Cl)c2)c(=O)[nH]c1=O [Example 24]
[reply] MID

[ask] Category lookup for the compound O=c1[nH]c(=O)n(-c2cc(Cl)c(Oc3ccc(=O)n(-c4ccccc4)c3)c(Cl)c2)nc1CF [Example 35]
[reply] MID

[ask] Category lookup for the compound N#Cc1nn(-c2cc(Cl)c(Oc3ccc(=O)n(-c4cccc(C(F)(F)F)c4)c3)c(Cl)c2)c(=O)[nH]c1=O [Example 23]
[reply] HIGH
